Target: HLA-A*02:01
Assay: IEDB peptide-MHC binding, purified MHC/competitive/fluorescence; bounds were set here for any values at or beyond the usual limits of such assays
Details: source organism: Zaire ebolavirus
pIC50: −log10 of the molar value.
Recorded endpoint: pIC50

KRLEELLPA ≤ 3.17
TEAEKQLQQ ≤ 3.47
ATEDPSSGY ≤ 3.42
ASTVIYRGT ≤ 3.65
RSQGPFDAV ≤ 3.79
RTNFLIKFL ≤ 3.78

====

pKd overview
Molecular target: HLA-A*31:01
Test: IEDB peptide-MHC binding, purified MHC/competitive/radioactivity; filed as Kd, often an IC50 or EC50 that approximates it; bounds were set here for any values at or beyond the usual limits of such assays
Details: source organism: Vaccinia virus WR
pKd: −log10 of the molar value.
Recorded endpoint: pKd

LIKFISDNKK 7.37
SMDVLAEKKY 4.77
PTFQLLNMIK 4.90
SIKDVIHDY 5.65
MVDELVTRK 5.40
KFTILEYLY 5.99
KFGKNHIHR 8.35

These measurements were taken from the Immune Epitope Database (IEDB).
